# METHOD NOTES: melting temperature; fluorescence melt of hairpins on a sequencing array, two-state fit, raised by 9.35 °C to match UV melts
# EXPERIMENTAL PARAMETERS: sodium 0.088 M
Listing of entries alongside the reported Tm.
OUTCOME MEASURE: Tm (°C)

> print(dat)
                                 residues  units.label  measured.number
 1  GGGGGTGGAAACGTCCCC ((((..(....)..))))           °C             48.7
 2  GCCTACCGAAAGGTTGGC (((.(((....))).)))           °C             62.5
 3  GTCGACGCGAAAGCGGAC (((..(((....))))))           °C             45.4
 4  GAAGTCGGAAACGACTCC (.(((((....))))).)           °C             41.3
 5          CCCATGAAAATGGG (((((....)))))           °C             51.2
 6  GGAGCCGGAAACGGCCCC ((.((((....)))).))           °C             58.5
 7  GGAAGACCGAAAGGTTCC (((..(((....))))))           °C             37.4
 8  GTTCCGGGAAACTGGGAC ((.((.(....).)).))           °C             41.4
 9              GCGAGGAATCGC ((((....))))           °C             54.6
10          GTCAGGAAACTGAC (((((....)))))           °C             53.6
11  GCTTCTCCGAAAGGAAGC (((..(((....))))))           °C             45.3
12      GATCGCACAGGCGATC ((((((....))))))           °C             68.1
13  GGCATCCGAAAGGAAGCC (((.(((....))).)))           °C             59.2
14  GGTGTGGGAAACTACACC (((((.(....).)))))           °C             52.6
15  GTTTATGGAAACATAGAC ((.((((....)))).))           °C             32.2
16  GAACGAGGAAACCCGTTC (((((.(....).)))))           °C             45.9
17  GGATGAGGAAACTCGTCC (((.(((....))).)))           °C             50.8
18  GTTACCGAAAGGTAAAAC ((((((....)))..)))           °C             34.7
19  GGCTCGGGAAACCGAACC ((.((((....)))).))           °C             48.8
20  GTAACCGAAAGGTCTTAC ((((((....)))..)))           °C             30.6
21      GATCTAGTATTAGATC ((((((....))))))           °C             47.1
22  GCAGCGGGAAACCGTTGC (((.(((....))).)))           °C             57.9
23      GATCGTACCGACGATC ((((((....))))))           °C             53.4
24      GATCCCAGGTGGGATC ((((((....))))))           °C             60.1
25      GATCACCCCCGTGATC ((((((....))))))           °C               55
26  GACCCCGAAAGGGGGGTC ((((((....)))..)))           °C             67.4
27  GGCATACGAAAGTACGCC (((.(((....))).)))           °C             51.8
28    GGTGTCGAAAGACAACC ((((((....))).)))           °C             55.7
29  GTCAGCGAAAGCTTGGAC ((((((....)))..)))           °C             38.2
30  GCTCCGCGAAAGCGACGC ((..(((....)))..))           °C             42.6
31      GATCAGAGCCCTGATC ((((((....))))))           °C             47.7
32  GCGAAGGGAAACCTCCGC (((.(((....))).)))           °C             46.6
33  GTGTGCGGAAACACACAC (((((.(....).)))))           °C             51.8
34  GGCAATTCGAAAGAAGCC (((..(((....))))))           °C             37.8
35  GTTCTTCCGAAAGGAAAC (((..(((....))))))           °C             27.5
36  GTATGGGGAAACCCACAC ((.((((....)))).))           °C             35.1
37      GATCGGTGACCCGATC ((((((....))))))           °C             55.8
38  GTTAGTGGAAACACTGAC ((.((((....)))).))           °C             44.7
39                GCGGTGTCCGC ((((...))))           °C             58.2

---

# METHOD NOTES: melting temperature; fluorescence melt of hairpins on a sequencing array, two-state fit, raised by 9.35 °C to match UV melts
# EXPERIMENTAL PARAMETERS: sodium 0.088 M
Decide using Tm alone. Strictly below 50 °C: 1.0. Equal to or above 50 °C: 0.0.

> print(dat)
                                 residues  discrete.label
 1    GGCTGACGAAAGTCGCC (((.(((....))))))             0.0
 2  GATGATGGAAACATCACC (.(((((....))))).)             1.0
 3  GCCGAGCGAAAGCCGGGC (((..((....))..)))             0.0
 4      GATCTGCATACAGATC ((((((....))))))             0.0
 5          GGGGAGAAATCCCC (((((....)))))             0.0
 6  GGAGTGGGAAACCGCTTC (.((.((....)).)).)             1.0
 7  GAACGGACGAAAGTCTTC (((..(((....))))))             1.0
 8    GGTGCCGAAAGGCCACC ((((((....))).)))             0.0
 9  GCATTTGGAAACAAACGC ((.((((....)))).))             1.0
10  GTGCGGGCGAAAGCCCAC (((..(((....))))))             0.0
11      GCCGTAGAAATACGGC ((((((....))))))             0.0
12  GCGCCTGCGAAAGCACGC (((..(((....))))))             1.0

---

# METHOD NOTES: folding enthalpy; higher = less favourable; fluorescence melt of hairpins on a sequencing array, two-state fit
# EXPERIMENTAL PARAMETERS: sodium 0.088 M
Give 1 when the value for folding enthalpy is at least -20 kcal/mol. Give -1 when it is less.

> print(dat)
                                 residues  discrete.label
 1      GAAATTGAAAAATTTC ((((((....))))))              -1
 2    GTCGAACGAAAGTTGAC (((.(((....))))))              -1
 3  GACTTAACGAAAGTTGTC (((..(((....))))))               1
 4  GGGCGAGGAAACCCACCC (((.(.(....).).)))               1
 5  GTGAGCGAAAGCTCCCAC ((((((....)))..)))               1
 6  GGCGCAGGAAACCGCACC ((.((.(....).)).))              -1
 7      GATCGCTCAAGCGATC ((((((....))))))              -1
 8    GTTAACGAAAGTTTAAC ((((((....))).)))               1
 9  GAACGCGGAAACGCGTCC (.(((((....))))).)               1
10  GTCGGCGAAAGCCTCGAC ((((((....)))..)))               1
11  GGACGCCGAAAGGCCTCC (((.(((....))).)))               1
12  GCCATAGGAAACTATGAC (.(((((....))))).)               1
13  GCCCCCCCGAAAGGGGGC (((..(((....))))))               1
14              GCGAAGTTTCGC ((((....))))               1
15      GATCGCCGATGCGATC ((((((....))))))              -1
16  GATCTAGGAAACTAGACC (.(((((....))))).)               1
17  GCTGCCGAAAGGCTGAGC ((((((....)))..)))               1
18      GATCTGCGCGCAGATC ((((((....))))))              -1
19  GTGGTTCGAAAGAAACAC (((.(((....))).)))              -1
20        GATCTGCCTCAGATC ((((((...))))))              -1
21    GTACGCGAAAGCGCTAC ((((((....))).)))               1
22  GCCCGGCGAAAGCCACGC ((..(((....)))..))               1
23  GTCAATGGAAACGTTGAC (((((.(....).)))))              -1
24  GTAGTGGGAAACCACTGC (.(((((....))))).)               1
